B1: ZNF449 (parent)
chain: HTGERPYECTVCKKRFTRRSHLIG

Variants of: B1
Test: protein stability index of a GFP-peptide fusion (GPS, HEK-293T) (PSI 1-6); higher = more stable;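 note: lentivirally expressed fusions sorted by FACS into six bins by GFP to DsRed ratio, PSI derived from sequencing read proportions per bin multiplied by bin number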
Details: c terminus: a fixed tail appended
For each of the variants below, state its protein stability index.
Enter a number only.

// sample C12Y , its protein stability index was 3.2

// sample H1Y , its protein stability index was 2.98

// sample P6I , its protein stability index was 2.08

// sample T2I , its protein stability index was 1.47

// sample R5C , its protein stability index was 3.5

// sample L22E , its protein stability index was 3.43

// sample C9N , its protein stability index was 3.63

// sample S20Y , its protein stability index was 3.34

// sample K14D , its protein stability index was 2.29

// sample I23S , its protein stability index was 2.55

// sample R18C , its protein stability index was 2.97

// sample C12M , its protein stability index was 4.64

// sample K13L , its protein stability index was 2.09

// sample R5A , its protein stability index was 1.96

// sample T17L , its protein stability index was 2.19

// sample Y7D , its protein stability index was 2.6

// sample T17F , its protein stability index was 1.51

// sample F16M , its protein stability index was 1.89

// sample R15I , its protein stability index was 2.1

// sample H1T , its protein stability index was 1.7

// sample P6A , its protein stability index was 2.67

// sample C9Q , its protein stability index was 3.64

// sample E8G , its protein stability index was 1.84

// sample E4P , its protein stability index was 2.04

// sample C9D , its protein stability index was 4.05

// sample F16G , its protein stability index was 2.82

// sample G3W , its protein stability index was 2.43

// sample C9E , its protein stability index was 3.31

// sample V11P , its protein stability index was 2.58

// sample F16T , its protein stability index was 2

// sample R18S , its protein stability index was 2.5

// sample C12S , its protein stability index was 3.39

// sample G3S , its protein stability index was 2.33

// sample C12I , its protein stability index was 3.31

// sample L22A , its protein stability index was 3.16

// sample G24P , its protein stability index was 1.95

// sample R19A , its protein stability index was 1.71

// sample F16H , its protein stability index was 3.32

// sample I23A , its protein stability index was 2.64

// sample E8S , its protein stability index was 2.32

// sample R19Q , its protein stability index was 2.34

// sample V11S , its protein stability index was 2.58

// sample L22W , its protein stability index was 2.66

// sample Y7M , its protein stability index was 2.11

// sample R19Y , its protein stability index was 2.1

// sample P6K , its protein stability index was 2.02
